- testProtocol: Antiproliferative activity against human A2780cis cells after 72 hrs at 37 degC by MTT assay
- Format: functional, cell-based
measureName: IC50

- O=C(CCCc1ccc(N(CCCl)CCCl)cc1)OCCC(F)(F)C(F)(F)C(F)(F)C(F)(F)C(F)(F)C(F)(F)C(F)(F)C(F)(F)F: 25 µM
- CCCCCCCCCCCCCCCCCCOC(=O)CCCc1ccc(N(CCCl)CCCl)cc1: > 200 µM
- O=C(CCCc1ccc(N(CCCl)CCCl)cc1)OCCC(F)(F)C(F)(F)C(F)(F)C(F)(F)C(F)(F)C(F)(F)C(F)(F)C(F)(F)C(F)(F)C(F)(F)F: > 200 µM

Data request: Bench note: what IC50 did O=C(O)CCCc1ccc(N(CCCl)CCCl)cc1 show?
Data returned: 43 µM

###

Overview of recorded pIC50 for various compounds
- testProtocol: Antiproliferative activity against immortalized human ECRF24 cells after 72 hrs at 37 degC by CellTiter-Glo luminescence assay
- Assay type: functional
- appliedConditions: ECRF24, 72 h
Remember the convention: pIC50 equals -log10 of concentration in molar.

Data request: I'd like to know its pIC50. The compound in question is O=C(CCCc1ccc(N(CCCl)CCCl)cc1)OCCC(F)(F)C(F)(F)C(F)(F)C(F)(F)C(F)(F)C(F)(F)C(F)(F)C(F)(F)F
Data returned: 4.28

###

# maps each entry to its IC50
- Test system: A2780
- testProtocol: Antiproliferative activity against human A2780 cells after 72 hrs at 37 degC by MTT assay
- Assay type: functional, cell-based
- appliedConditions: A2780, 72 h
# output: bare number, implied unit µM

* O=C(O)CCCc1ccc(N(CCCl)CCCl)cc1 [CHLORAMBUCIL] | 12

# evaluate next
Data request: What does the record list as IC50 for O=C(CCCc1ccc(N(CCCl)CCCl)cc1)OCCC(F)(F)C(F)(F)C(F)(F)C(F)(F)C(F)(F)C(F)(F)C(F)(F)C(F)(F)F ?
Data returned: 38

###

- testProtocol: Antiproliferative activity against immortalized human ECRF24 cells after 72 hrs at 37 degC by CellTiter-Glo luminescence assay
- Type: functional
- appliedConditions: ECRF24, 72 h
measureName: pIC50
pIC50 is a log-scale quantity: -log10 of the concentration expressed in molar.

Recorded pIC50, per entry:
• O=C(CCCc1ccc(N(CCCl)CCCl)cc1)OCCC(F)(F)C(F)(F)C(F)(F)C(F)(F)C(F)(F)C(F)(F)C(F)(F)C(F)(F)C(F)(F)C(F)(F)F = 4.18
• CCCCCCCCCCCCCCCCCCOC(=O)CCCc1ccc(N(CCCl)CCCl)cc1 = 4.05

Now look at this one.
Data request: Please give the measured pIC50 for this compound: O=C(O)CCCc1ccc(N(CCCl)CCCl)cc1
Data returned: 5.10
